# assay target: T1, SH3 binding peptide biotin-SGSGILAPPVPPRNTR-COOH (SMILES …)
# T1 peptide: Biotin-SGSGILAPPVPPRNTR-OH
# test description: peptide binding ELISA: GST-PDZ on plate, biotin-peptide/streptavidin-alkaline phosphatase complex, colorimetric
* marks the point of attachment. Biotin = O=C1N[C@H]2[C@H](CS[C@H]2CCCCC(=O)*)N1
property name: A405 (A405)
Write the value in A405 as a bare number.

>>> measured_result("GST fusion of MMSC1 PDZ domain 8 (amino acids 1436-1518) (other, Expressed in E. coli, purified on glutathione-agarose, adsorbed to the ELISA plate; GST is placed N-terminal as in pGEX vectors; also called MMSc1 PDZ 8; PDZ domain number 8; not shown: glutathione S-transferase (GST) encoded by pGEX vectors (Pharmacia)) MIIEISKGRSGLGLSIVGGKDTPLNAIVIHEVYEEGAAARDGRLWAGDQILEVNGVDLRNSSHEEAITALRQTPQKVRLVVYR")
0
>>> measured_result("GST fusion of MMSC1 PDZ domain 7 (amino acids 1238-1320) (other, Expressed in E. coli, purified on glutathione-agarose, adsorbed to the ELISA plate; GST is placed N-terminal as in pGEX vectors; also called MMSc1 PDZ 7; PDZ domain number 7; not shown: glutathione S-transferase (GST) encoded by pGEX vectors (Pharmacia)) HIIELEKDKNGLGLSLAGNKDRSRMSIFVVGINPEGPAAADGRMHIGDELLEINNQILYGRSHQNASAIIKTAPSKVKLVFIR")
0.01
>>> measured_result("GST fusion of MMSC1 PDZ domain 3 (amino acids 364-451) (other, Expressed in E. coli, purified on glutathione-agarose, adsorbed to the ELISA plate; GST is placed N-terminal as in pGEX vectors; also called MMSc1 PDZ 3; PDZ domain number 3; not shown: glutathione S-transferase (GST) encoded by pGEX vectors (Pharmacia)) YNVELVRKDGQSLGIRIVGYVGTSHTGEASGIYVKSVIPGSAAYHNGHIQVNDKIVAVDGVNIQGFANHDVVEVLRNAGQVVHLTLVR")
0.01
>>> measured_result("GST fusion of MMSC1 PDZ domain 6 (amino acids 1067-1158) (other, Expressed in E. coli, purified on glutathione-agarose, adsorbed to the ELISA plate; GST is placed N-terminal as in pGEX vectors; also called MMSc1 PDZ 6; PDZ domain number 6; not shown: glutathione S-transferase (GST) encoded by pGEX vectors (Pharmacia)) RIVEIFREPNVSLGISIVGGQTVIKRLKNGEELKGIFIKQVLEDSPAGKTNALKTGDKILEVSGVDLQNASHSEAVEAIKNAGNPVVFIVQS")
0

Any idea what its A405 is? The binder is GST fusion of MMSC1 PDZ domain 5 (amino acids 685-771) (other, Expressed in E. coli, purified on glutathione-agarose, adsorbed to the ELISA plate; GST is placed N-terminal as in pGEX vectors; also called MMSc1 PDZ 5; PDZ domain number 5; not shown: glutathione S-transferase (GST) encoded by pGEX vectors (Pharmacia)) KIVELVKDCKGLGFSILDYQDPLDPTRSVIVIRSLVADGVAERSGGLLPGDRLVSVNEYCLDNTSLAEAVEILKAVPPGLVHLGICK
0

Any idea what its A405 is? The binder is GST fusion of MMSC1 PDZ domain 9 (amino acids 1532-1613) (other, Expressed in E. coli, purified on glutathione-agarose, adsorbed to the ELISA plate; GST is placed N-terminal as in pGEX vectors; also called MMSc1 PDZ 9; PDZ domain number 9; not shown: glutathione S-transferase (GST) encoded by pGEX vectors (Pharmacia)) FPVDLQKKAGRGLGLSIVGKRNGSGVFISDIVKGGAADLDGRLIQGDQILSVNGEDMRNASQETVATILKCAQGLVQLEIGR
0.02
